meta.source: patent US20200390100A1

Assignment: determine reported Amaranthus retroflexus (efficacy in %) for the given compounds.
test system: Amaranthus retroflexus; test: Pre-emergence herbicidal action, greenhouse, 320 g/ha; format: in vivo; conditions: application rate 320 g/ha, scored visually after about 3 weeks vs untreated controls
Answers are plain numbers, in %.

# annotated cases, reported Amaranthus retroflexus (efficacy in %) shown
> print(dat)
                                   compound                         reported.metric  unit.string  experimental.result
1  CC(C)CC(=O)OC1CCN(C)C(=O)N1c1cc(C(C)(C)C)on1 (stereo not shown)  Amaranthus retroflexus (efficacy in %)            %                  100
2  CN1CCC(O)N(c2noc(C(C)(C)C)c2F)C1=O (stereo not shown)  Amaranthus retroflexus (efficacy in %)            %                   90
3  CN1CCC(OC(=O)C(C)(C)C)N(c2cc(C(C)(C)C)on2)C1=O (stereo not shown)  Amaranthus retroflexus (efficacy in %)            %                  100

List reported Amaranthus retroflexus (efficacy in %) for each of these compounds:
1. CN1CC(F)(F)C(O)N(c2cc(C(C)(C)C)on2)C1=O (stereo not shown)
2. CN1CCC(O)N(c2cc(C(F)(F)F)c(Br)cn2)C1=O (stereo not shown)
3. CON1CCC(O)N(c2cc(C(C)(C)C)on2)C1=O (stereo not shown)
4. CN1CCC(O)N(c2noc(C(C)(C)C)c2Br)C1=O (stereo not shown)
5. CCCC(=O)OC1CCN(C)C(=O)N1c1cc(C(C)(C)C)on1 (stereo not shown)
6. CC(=O)OC1CC(C)N(C)C(=O)N1c1cc(C(C)(C)C)on1 (mixture of isomers)
7. CN1CCC(O)N(c2cc(C(F)(F)F)c(Cl)cn2)C1=O (stereo not shown)

[A]
1. 100
2. 100
3. 90
4. 90
5. 100
6. 100
7. 90
